Target: autotaxin (ATX) (Homo sapiens)
Construct: conditioned medium from the human melanoma cell line, MDA-MB-4355, which endogenously expresses autotaxin; serum-free conditioned medium, concentrated 20-fold
Assay: Native Autotaxin Choline Release Assay
Conditions: autotaxin in conditioned medium from human melanoma cell line; choline released from LPC; read-out: MDA-MB-435S Assay IC50
pIC50: −log10 of the molar value.
Recorded pIC50 values for a group of molecules are listed next.

Here are 2 molecules together with their reported answers.
> print(dat)
                                   molecule  attributemeasured  result
1  Cc1c(Sc2cccc(C(=O)O)c2)c2ccc(Cl)c(F)c2n1-c1cnn(C)c1              pIC50  > 6.52
2  Cc1c(Sc2cccc(C(=O)O)c2)c2ccc(Cl)cc2n1-c1cnn(-c2ccccc2)c1              pIC50  > 6.52

QUERY: Fill in pIC50 for record "Cc1c(Sc2cccc(C(=O)O)c2)c2ccc(-c3ccccc3)cc2n1Cc1ccccc1"
RESULT: < 6.00

QUERY: Fill in pIC50 for record "Cc1c(Sc2cccc(/C=C/C(=O)O)c2)c2ccc(Cl)cc2n1Cc1ccccc1"
RESULT: < 6.00

QUERY: Fill in pIC50 for record "CCn1ccc(-n2c(C)c(Sc3cccc(C(=O)O)c3)c3ccc(Cl)c(F)c32)n1"
RESULT: 6.00 to 6.52

QUERY: Fill in pIC50 for record "COc1ccc(C(=O)O)cc1Sc1c(C)n(-c2cnn(C)c2)c2cc(Cl)ccc12"
RESULT: < 6.00
